Field: pKd. Provide a value for each of the binders that follow.
experimentalTarget: T1, GFP-9S library array, motif 4 ND N98P;D124G (synthetic construct, N98P;D124G)
T1 chain: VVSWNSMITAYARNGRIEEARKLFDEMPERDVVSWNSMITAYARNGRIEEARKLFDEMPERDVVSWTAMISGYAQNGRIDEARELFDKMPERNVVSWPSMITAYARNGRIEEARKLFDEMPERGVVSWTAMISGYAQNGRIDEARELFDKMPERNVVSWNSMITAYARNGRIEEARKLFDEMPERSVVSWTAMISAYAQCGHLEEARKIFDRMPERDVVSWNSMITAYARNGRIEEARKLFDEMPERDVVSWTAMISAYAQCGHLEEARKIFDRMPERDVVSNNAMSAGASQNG
methodNotes: high-throughput RNA pulldown from lysate on Ni-NTA beads; HRP: 50 mM Tris pH 8, 150 mM NaCl, 1 mM beta-mercaptoethanol, 50 ug/ml BSA, 3 ug/ml yeast RNA, 0.5% heparin; ITC and FP: Tris pH 8, 200 mM KCl, 5% glycerol; MST: 50 mM Tris pH 8, 200 mM NaCl, 1 mM DTT, BSA, heparin, 0.05% Tween 20
assayConditions: tags: N-terminal His-eGFP; label: 5' Cy5
One number for each entry, as −log10 of the molar value.

# return pKd for each item in the list
1. AUUAGACGUGA (ssRNA) [Cy5-rpoA-G]
2. AUUACACGUGA (ssRNA) [Cy5-rpoA]

6.58
6.46

Ref: paper PMC8809517
